- target-system: Tyrosine-protein kinase Mer (Homo sapiens) (UniProt Q12866)
- Sequence (Q12866 whole entry): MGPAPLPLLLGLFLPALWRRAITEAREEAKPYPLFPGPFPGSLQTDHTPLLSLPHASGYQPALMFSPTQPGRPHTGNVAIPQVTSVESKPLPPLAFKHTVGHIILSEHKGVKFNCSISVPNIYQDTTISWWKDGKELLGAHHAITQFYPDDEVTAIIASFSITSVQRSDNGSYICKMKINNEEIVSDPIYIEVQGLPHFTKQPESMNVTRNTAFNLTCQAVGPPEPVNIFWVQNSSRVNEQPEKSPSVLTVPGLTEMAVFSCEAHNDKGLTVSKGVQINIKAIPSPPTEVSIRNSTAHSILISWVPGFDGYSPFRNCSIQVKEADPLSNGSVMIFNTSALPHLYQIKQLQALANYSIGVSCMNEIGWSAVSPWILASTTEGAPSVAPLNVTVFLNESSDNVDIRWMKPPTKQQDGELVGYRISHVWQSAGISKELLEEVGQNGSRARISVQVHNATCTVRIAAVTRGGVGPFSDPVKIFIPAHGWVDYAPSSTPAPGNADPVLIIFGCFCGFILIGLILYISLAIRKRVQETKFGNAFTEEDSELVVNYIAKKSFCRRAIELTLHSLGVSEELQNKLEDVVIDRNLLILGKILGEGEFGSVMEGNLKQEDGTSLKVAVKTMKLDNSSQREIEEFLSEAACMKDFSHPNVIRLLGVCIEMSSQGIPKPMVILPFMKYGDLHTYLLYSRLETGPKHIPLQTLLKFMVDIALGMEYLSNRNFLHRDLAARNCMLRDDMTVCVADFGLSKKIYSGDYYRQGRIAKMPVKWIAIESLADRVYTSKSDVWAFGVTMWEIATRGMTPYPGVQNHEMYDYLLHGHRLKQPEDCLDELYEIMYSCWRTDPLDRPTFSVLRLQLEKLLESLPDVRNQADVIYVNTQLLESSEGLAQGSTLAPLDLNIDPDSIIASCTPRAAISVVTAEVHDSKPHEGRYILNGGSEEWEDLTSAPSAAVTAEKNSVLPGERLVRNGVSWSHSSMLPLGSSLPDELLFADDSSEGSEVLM
- protocol: Inhibition of Mer (unknown origin) at 0.5 uM relative to control
quantity-measured: inhibition (%)

Please review the following examples before continuing.
- compound-string: "Nc1nccc(Oc2ccc(NC(=O)c3cccn(-c4ccc(F)cc4)c3=O)cc2F)n1"
  measured: 94
- compound-string: "Nc1cc(Oc2ccc(NC(=O)c3cccn(-c4ccc(F)cc4)c3=O)cc2)ncn1"
  measured: 73
- compound-string: "Nc1cc(Oc2ccc(NC(=O)c3cccn(-c4ccc(F)cc4)c3=O)cc2F)ncn1"
  measured: 89

[A] CCOc1ccn(-c2ccc(F)cc2)c(=O)c1C(=O)Nc1ccc(Oc2ccnc(N)c2Cl)c(F)c1
[B] Nc1cc(Oc2ccc(NC(=O)c3cccn(-c4ccc(F)cc4F)c3=O)cc2F)ncn1
[in] Of A and B , which one carries the higher reported inhibition? Respond with the label that goes with your answer.
[out] A

====

- target-system: Tyrosine-protein kinase receptor UFO (Homo sapiens) (UniProt P30530)
- Sequence (P30530 whole entry): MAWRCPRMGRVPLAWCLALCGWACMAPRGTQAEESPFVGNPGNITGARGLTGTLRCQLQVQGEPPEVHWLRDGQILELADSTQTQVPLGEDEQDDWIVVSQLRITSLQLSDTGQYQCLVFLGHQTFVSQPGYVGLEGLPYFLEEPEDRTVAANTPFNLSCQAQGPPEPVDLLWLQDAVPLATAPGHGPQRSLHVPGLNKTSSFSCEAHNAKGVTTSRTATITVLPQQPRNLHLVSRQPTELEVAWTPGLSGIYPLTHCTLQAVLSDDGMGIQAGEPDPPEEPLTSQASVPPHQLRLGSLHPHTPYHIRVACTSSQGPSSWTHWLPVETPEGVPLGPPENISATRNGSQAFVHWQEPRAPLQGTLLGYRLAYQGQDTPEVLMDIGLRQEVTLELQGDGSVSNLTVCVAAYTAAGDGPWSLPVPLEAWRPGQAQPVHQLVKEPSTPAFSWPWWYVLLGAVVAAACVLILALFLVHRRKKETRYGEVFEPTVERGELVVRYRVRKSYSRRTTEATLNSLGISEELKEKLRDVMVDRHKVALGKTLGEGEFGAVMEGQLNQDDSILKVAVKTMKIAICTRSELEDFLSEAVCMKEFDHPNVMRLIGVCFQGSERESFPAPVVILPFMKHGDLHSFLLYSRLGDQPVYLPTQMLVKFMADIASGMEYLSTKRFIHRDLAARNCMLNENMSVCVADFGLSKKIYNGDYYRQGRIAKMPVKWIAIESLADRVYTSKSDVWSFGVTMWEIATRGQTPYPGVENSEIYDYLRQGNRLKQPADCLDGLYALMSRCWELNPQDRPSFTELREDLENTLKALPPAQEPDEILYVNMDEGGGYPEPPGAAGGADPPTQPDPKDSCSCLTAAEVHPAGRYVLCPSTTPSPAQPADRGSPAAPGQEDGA
- protocol: Inhibition of Axl (unknown origin) at 1 uM relative to control
quantity-measured: inhibition (%)

- compound-string: "CCOc1ccn(-c2ccc(F)cc2)c(=O)c1C(=O)Nc1ccc(Oc2ccnc(N)c2Cl)c(F)c1"
  measured: 99
- compound-string: "Cc1cc(F)ccc1-n1cccc(C(=O)Nc2ccc(Oc3cc(N)ncn3)c(F)c2)c1=O"
  measured: 98
- compound-string: "O=C(Nc1ccc(Oc2ncnc3[nH]cnc23)c(F)c1)c1cccn(-c2ccc(F)cc2)c1=O"
  measured: 100
- compound-string: "Nc1nccc(Oc2ccc(NC(=O)c3cccn(-c4ccc(F)cc4)c3=O)cc2F)n1"
  measured: 100
- compound-string: "Nc1cc(Oc2ccc(NC(=O)c3cccn(-c4ccc(F)cc4F)c3=O)cc2F)ncn1"
  measured: 93
- compound-string: "Nc1cc(Oc2ccc(NC(=O)c3cccn(-c4ccc(F)cc4)c3=O)cc2F)ncn1"
  measured: 100
- compound-string: "O=C(Nc1ccc(Oc2cc(NCCN3CCOCC3)ncn2)c(F)c1)c1cccn(-c2ccc(F)cc2)c1=O"
  measured: 99
- compound-string: "Nc1cc(Oc2ccc(NC(=O)c3cccn(-c4ccc(F)cc4)c3=O)cc2)ncn1"
  measured: 95

====

- target-system: UniProt:Q06418
- Sequence (Q06418 whole entry, the tested form may be a part): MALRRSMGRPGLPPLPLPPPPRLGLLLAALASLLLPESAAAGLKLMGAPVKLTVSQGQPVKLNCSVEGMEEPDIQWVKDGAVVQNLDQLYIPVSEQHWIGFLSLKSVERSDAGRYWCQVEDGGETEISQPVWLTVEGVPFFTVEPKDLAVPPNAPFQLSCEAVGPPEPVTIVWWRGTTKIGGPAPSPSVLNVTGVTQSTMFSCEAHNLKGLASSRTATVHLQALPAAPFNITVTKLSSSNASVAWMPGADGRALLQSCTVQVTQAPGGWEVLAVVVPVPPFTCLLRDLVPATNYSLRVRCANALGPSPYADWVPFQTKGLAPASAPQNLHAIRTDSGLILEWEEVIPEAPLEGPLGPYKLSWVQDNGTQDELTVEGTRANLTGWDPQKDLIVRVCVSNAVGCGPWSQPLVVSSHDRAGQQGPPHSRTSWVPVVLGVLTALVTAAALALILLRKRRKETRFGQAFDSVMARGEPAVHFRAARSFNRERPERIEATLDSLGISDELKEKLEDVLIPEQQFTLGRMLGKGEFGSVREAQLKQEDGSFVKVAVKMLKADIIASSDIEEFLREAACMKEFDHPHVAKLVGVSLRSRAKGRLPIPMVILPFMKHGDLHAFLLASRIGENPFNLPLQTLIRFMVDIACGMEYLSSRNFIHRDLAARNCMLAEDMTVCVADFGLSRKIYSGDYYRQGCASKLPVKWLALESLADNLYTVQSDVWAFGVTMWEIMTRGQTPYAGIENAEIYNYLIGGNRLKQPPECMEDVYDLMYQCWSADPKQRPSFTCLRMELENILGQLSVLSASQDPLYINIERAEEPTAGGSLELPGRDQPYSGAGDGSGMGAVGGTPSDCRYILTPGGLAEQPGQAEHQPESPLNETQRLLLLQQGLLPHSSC
- protocol: Inhibition of recombinant human Tyro3 kinase domain using poly (Glu, Ala, Tyr) as substrate at 0.5 uM after 1.5 hrs by ELISA relative to control
quantity-measured: inhibition (%)

Known results for molecules:
- compound-string: "Nc1nccc(Oc2ccc(NC(=O)c3cccn(-c4ccc(F)cc4)c3=O)cc2F)n1"
  inhibition / %: 61
- compound-string: "O=C(Nc1ccc(Oc2ncnc3[nH]cnc23)c(F)c1)c1cccn(-c2ccc(F)cc2)c1=O"
  inhibition / %: 73

[I] Nc1cc(Oc2ccc(NC(=O)c3cccn(-c4ccc(F)cc4F)c3=O)cc2F)ncn1
[II] O=C(Nc1ccc(Oc2cc(NCCN3CCOCC3)ncn2)c(F)c1)c1cccn(-c2ccc(F)cc2)c1=O
[III] CCOc1ccn(-c2ccc(F)cc2)c(=O)c1C(=O)Nc1ccc(Oc2ccnc(N)c2Cl)c(F)c1
[in] Descending sort on inhibition required. // format: requested-order list of labels
[out] III, II, I

====

- target-system: UniProtKB P08581
- Sequence (P08581 whole entry): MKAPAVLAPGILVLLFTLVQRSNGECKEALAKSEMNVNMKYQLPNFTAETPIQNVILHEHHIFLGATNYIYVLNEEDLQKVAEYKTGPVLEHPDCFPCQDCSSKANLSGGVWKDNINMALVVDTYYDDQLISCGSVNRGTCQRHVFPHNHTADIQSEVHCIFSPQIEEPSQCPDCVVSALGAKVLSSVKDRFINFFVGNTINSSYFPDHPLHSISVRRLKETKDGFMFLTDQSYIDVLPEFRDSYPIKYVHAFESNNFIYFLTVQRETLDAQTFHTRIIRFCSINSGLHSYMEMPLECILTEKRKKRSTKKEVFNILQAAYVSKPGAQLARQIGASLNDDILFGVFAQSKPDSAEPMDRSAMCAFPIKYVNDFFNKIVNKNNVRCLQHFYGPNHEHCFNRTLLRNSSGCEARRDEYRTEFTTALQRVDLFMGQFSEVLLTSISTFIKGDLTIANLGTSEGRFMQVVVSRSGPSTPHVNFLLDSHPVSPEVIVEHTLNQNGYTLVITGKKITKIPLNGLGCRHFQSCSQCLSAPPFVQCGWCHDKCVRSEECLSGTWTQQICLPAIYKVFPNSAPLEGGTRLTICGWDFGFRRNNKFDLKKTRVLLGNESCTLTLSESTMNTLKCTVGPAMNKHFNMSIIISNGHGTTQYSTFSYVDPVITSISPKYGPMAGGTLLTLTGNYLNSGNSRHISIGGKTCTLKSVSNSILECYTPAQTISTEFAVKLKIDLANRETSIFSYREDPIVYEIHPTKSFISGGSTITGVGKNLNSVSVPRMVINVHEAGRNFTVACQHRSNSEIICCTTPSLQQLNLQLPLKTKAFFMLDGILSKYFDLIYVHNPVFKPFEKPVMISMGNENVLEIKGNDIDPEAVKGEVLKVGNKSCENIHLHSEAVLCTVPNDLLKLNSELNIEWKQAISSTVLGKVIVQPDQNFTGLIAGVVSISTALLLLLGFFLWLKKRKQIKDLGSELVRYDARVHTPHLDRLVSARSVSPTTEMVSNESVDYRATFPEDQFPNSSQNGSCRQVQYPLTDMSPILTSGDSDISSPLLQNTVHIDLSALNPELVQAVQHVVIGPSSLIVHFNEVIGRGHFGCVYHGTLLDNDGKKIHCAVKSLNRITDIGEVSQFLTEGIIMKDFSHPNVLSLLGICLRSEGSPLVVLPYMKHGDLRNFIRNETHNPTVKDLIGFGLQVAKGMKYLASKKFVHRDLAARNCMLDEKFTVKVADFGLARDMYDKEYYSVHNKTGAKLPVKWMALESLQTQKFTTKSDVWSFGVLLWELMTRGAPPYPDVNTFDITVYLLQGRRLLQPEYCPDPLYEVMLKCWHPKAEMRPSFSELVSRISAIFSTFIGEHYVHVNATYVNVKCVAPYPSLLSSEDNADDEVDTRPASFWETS
- protocol: Inhibition of Met (unknown origin) at 1 uM relative to control
quantity-measured: inhibition (%)

- compound-string: "Nc1cc(Oc2ccc(NC(=O)c3cccn(-c4ccc(F)cc4)c3=O)cc2F)ncn1"
  inhibition (%): 98
- compound-string: "O=C(Nc1ccc(Oc2cc(NCCN3CCOCC3)ncn2)c(F)c1)c1cccn(-c2ccc(F)cc2)c1=O"
  inhibition (%): 99
- compound-string: "Nc1cc(Oc2ccc(NC(=O)c3cccn(-c4ccc(F)cc4F)c3=O)cc2F)ncn1"
  inhibition (%): 97

Where these numbers come from: ChEMBL document CHEMBL3091325
